- System: 282377-053-R-J1-PDC complex spheroid viability
- ASSAY_SUMMARY: Anticancer human tumor 282377-053-R-J1-PDC patient-derived colon adenocarcinoma cell line growth inhibition [RAS]
- PARTICULARS: second compound 0.00949 µM; first compound 0.1 µM; stronger effect = lower value
# yes (1) = viability, T/C below 80% (exclusive); no (0) = viability, T/C at/above 80%

Ask | Lab note: viability, T/C threshold 80%. Does this molecule come in strictly under it? CC(=O)OC12COC1CC(O)C1(C)C(=O)C(O)C3=C(C)C(OC(=O)C(O)C(NC(=O)OC(C)(C)C)c4ccccc4)CC(O)(C(OC(=O)c4ccccc4)C21)C3(C)C (stereo not given) + CCn1c(-c2cccnc2C(C)OC)c2c3cc(ccc31)N1CCOC(CC(NC(=O)C(C(C)C)N(C)C(=O)C3(F)CCN(C(=O)C#CC(C)(C)N(C)C)CC3)C(=O)N3CCCC(N3)C(=O)OCC(C)(C)C2)C1
Reply | yes (1)

Ask | Lab note: viability, T/C threshold 80%. Does this molecule come in strictly under it? CC(C)n1nc(-c2ccc3oc(N)nc3c2)c2c(N)ncnc21 + CCn1c(-c2cccnc2C(C)OC)c2c3cc(ccc31)N1CCOC(CC(NC(=O)C(C(C)C)N(C)C(=O)C3(F)CCN(C(=O)C#CC(C)(C)N(C)C)CC3)C(=O)N3CCCC(N3)C(=O)OCC(C)(C)C2)C1
Reply | yes (1)

Ask | Lab note: viability, T/C threshold 80%. Does this molecule come in strictly under it? CCC(CC)c1cc(NC2CCC(N)C2)n2nccc2n1 (stereo not given) + CCn1c(-c2cc(N3CCN(C)CC3)cnc2C(C)OC)c2c3cc(ccc31)-c1csc(n1)CC(NC(=O)C1CC1C)C(=O)N1CCCC(N1)C(=O)OCC(C)(C)C2
Reply | no (0)

Ask | Lab note: viability, T/C threshold 80%. Does this molecule come in strictly under it? CC(Nc1ccc2c(c1)OCCn1cc(N3C(=O)OCC3C(F)F)nc1-2)C(N)=O (stereo not given) + CCn1c(-c2cc(N3CCN(C)CC3)cnc2C(C)OC)c2c3cc(ccc31)-c1csc(n1)CC(NC(=O)C1CC1C)C(=O)N1CCCC(N1)C(=O)OCC(C)(C)C2
Reply | no (0)

Ask | Lab note: viability, T/C threshold 80%. Does this molecule come in strictly under it? CC1(O)CCCC1n1c(=O)c(C(F)F)cc2cnc(NC3CCN(S(C)(=O)=O)CC3)nc21 (stereo not given) + CCn1c(-c2cccnc2C(C)OC)c2c3cc(ccc31)N1CCOC(CC(NC(=O)C(C(C)C)N(C)C(=O)C3(F)CCN(C(=O)C#CC(C)(C)N(C)C)CC3)C(=O)N3CCCC(N3)C(=O)OCC(C)(C)C2)C1
Reply | no (0)

* * *

- System: 282377-053-R-J1-PDC complex spheroid viability
- ASSAY_SUMMARY: Anticancer human tumor 282377-053-R-J1-PDC cell line growth inhibition [RAS];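 note: spheroids exposed to agents for seven days before readout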;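 for viability, T/C: luminescence viability as percent of DMSO vehicle control wells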
- PARTICULARS: second compound 3.16 µM; first compound 3.16 µM; stronger effect = lower value
PARAMETER: viability, T/C (%)
Enter your answer as a number in %; do not include the unit.

Ask | Param item = C[C@@H](NC(=O)c1ncnc(N)c1Cl)c1ncc(C(=O)Nc2cc(C(F)(F)F)c(Cl)cn2)s1 + C#Cc1c(F)ccc2cc(O)cc(-c3ncc4c(N5CC6CCC(C5)N6)nc(OCC56CCCN5CC(F)C6)nc4c3F)c12 ; retrieve measured viability, T/C.
Reply | 80.9

Ask | Param item = CC(=O)OC12COC1CC(O)C1(C)C(=O)C(O)C3=C(C)C(OC(=O)C(O)C(NC(=O)OC(C)(C)C)c4ccccc4)CC(O)(C(OC(=O)c4ccccc4)C21)C3(C)C (stereo not drawn) + C#Cc1c(F)ccc2cc(O)cc(-c3ncc4c(N5CC6CCC(C5)N6)nc(OCC56CCCN5CC(F)C6)nc4c3F)c12 ; retrieve measured viability, T/C.
Reply | 58.5

Ask | Param item = CCC(CC)c1cc(NC2CCC(N)C2)n2nccc2n1 (stereo not drawn) + C#Cc1c(F)ccc2cc(O)cc(-c3ncc4c(N5CC6CCC(C5)N6)nc(OCC56CCCN5CC(F)C6)nc4c3F)c12 ; retrieve measured viability, T/C.
Reply | 10.8

* * *

- Tested on: 282377-053-R-J1-PDC complex spheroid viability
- ASSAY_SUMMARY: Anticancer human tumor 282377-053-R-J1-PDC cell line growth inhibition [RAS];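 note: spheroids exposed to agents for seven days before readout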
- PARTICULARS: curve of first compound; second compound 1 µM
I'd be grateful if you could share measured IC50 for these entries.

Ask | Param item = CC(=O)OC12COC1CC(O)C1(C)C(=O)C(O)C3=C(C)C(OC(=O)C(O)C(NC(=O)OC(C)(C)C)c4ccccc4)CC(O)(C(OC(=O)c4ccccc4)C21)C3(C)C (centres undefined) + C#Cc1c(F)ccc2cc(O)cc(-c3ncc4c(N5CC6CCC(C5)N6)nc(OCC56CCCN5CC(F)C6)nc4c3F)c12 ; retrieve measured IC50.
Reply | < 0.0316 µM

Ask | Param item = CC(C)NCC(C(=O)N1CCN(c2ncnc3c2C(C)CC3O)CC1)c1ccc(Cl)cc1 (centres undefined) + C#Cc1c(F)ccc2cc(O)cc(-c3ncc4c(N5CC6CCC(C5)N6)nc(OCC56CCCN5CC(F)C6)nc4c3F)c12 ; retrieve measured IC50.
Reply | > 10 µM

Ask | Param item = Cc1nc(N2CCC3(CC2)COC(C)C3N)c(CO)nc1Sc1ccnc(N)c1Cl (centres undefined) + C=CC(=O)N1CCN(c2nc(OCC3CCCN3C)nc3c(F)c(-c4nc(N)cc(C)c4C(F)(F)F)c(Cl)cc23)C(C)C1 ; retrieve measured IC50.
Reply | > 10 µM

Ask | Param item = CC(C)n1nc(-c2ccc3oc(N)nc3c2)c2c(N)ncnc21 + C#Cc1c(F)ccc2cc(O)cc(-c3ncc4c(N5CC6CCC(C5)N6)nc(OCC56CCCN5CC(F)C6)nc4c3F)c12 ; retrieve measured IC50.
Reply | > 0.1 µM

* * *

- Tested on: 282377-053-R-J1-PDC complex spheroid viability
- ASSAY_SUMMARY: Anticancer human tumor 282377-053-R-J1-PDC cell line growth inhibition [RAS];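 note: spheroids exposed to agents for seven days before readout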;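 for viability, T/C: luminescence viability as percent of DMSO vehicle control wells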
- PARTICULARS: second compound 0.0949 µM; first compound 0.1 µM; stronger effect = lower value
I'd be grateful if you could share measured viability, T/C for these entries.
Enter your answer as a number in %; do not include the unit.

Ask | Param item = C=CC(=O)Nc1cc(Nc2nccc(-c3cn(C)c4ccccc34)n2)c(OC)cc1N(C)CCN(C)C + CCn1c(-c2cc(N3CCN(C)CC3)cnc2C(C)OC)c2c3cc(ccc31)-c1csc(n1)CC(NC(=O)C1CC1C)C(=O)N1CCCC(N1)C(=O)OCC(C)(C)C2 ; retrieve measured viability, T/C.
Reply | 78.6

Ask | Param item = C=CC(=O)Nc1cc(Nc2nccc(-c3cn(C)c4ccccc34)n2)c(OC)cc1N(C)CCN(C)C + CCn1c(-c2cccnc2C(C)OC)c2c3cc(ccc31)N1CCOC(CC(NC(=O)C(C(C)C)N(C)C(=O)C3(F)CCN(C(=O)C#CC(C)(C)N(C)C)CC3)C(=O)N3CCCC(N3)C(=O)OCC(C)(C)C2)C1 ; retrieve measured viability, T/C.
Reply | 98.5

Ask | Param item = CCN1CCN(Cc2ccc(Nc3ncc(F)c(-c4cc(F)c5nc(C)n(C(C)C)c5c4)n3)nc2)CC1 + CCn1c(-c2cc(N3CCN(C)CC3)cnc2C(C)OC)c2c3cc(ccc31)-c1csc(n1)CC(NC(=O)C1CC1C)C(=O)N1CCCC(N1)C(=O)OCC(C)(C)C2 ; retrieve measured viability, T/C.
Reply | 123
